These data points were gathered from patent US4267180A.

Please respond with reported Minimal Inhibitory Concentration for every item in the list.
# System: Pseudomonas Aeruginosa #28
# procedure summary: Minimal Inhibitory Concentration, in vitro
# Type: cell-based
# Design: unit not given here
Give bare numbers.

# molecule, system tested, assay readout, assay value
data = [
    ("CC(=O)NCC(=O)Nc1ccc(-c2ncc(C(=O)N[C@@H](C(=O)N[C@@H]3C(=O)N4[C@@H]3SC(C)(C)[C@@H]4C(=O)O)c3ccc(O)cc3)c(O)n2)cc1", "Pseudomonas Aeruginosa #28", "Minimal Inhibitory Concentration", 1.6),
    ("CC(=O)N[C@@H](Cc1ccc(O)cc1)C(=O)Nc1ccc(-c2ncc(C(=O)N[C@@H](C(=O)N[C@@H]3C(=O)N4[C@@H]3SC(C)(C)[C@@H]4C(=O)O)c3ccc(O)cc3)c(O)n2)cc1", "Pseudomonas Aeruginosa #28", "Minimal Inhibitory Concentration", 1.6),
    ("CC(=O)NC(CC(C)C)C(=O)Nc1ccc(-c2ncc(C(=O)N[C@@H](C(=O)N[C@@H]3C(=O)N4[C@@H]3SC(C)(C)[C@@H]4C(=O)O)c3ccc(O)cc3)c(O)n2)cc1 (mixture of isomers)", "Pseudomonas Aeruginosa #28", "Minimal Inhibitory Concentration", 3.1),
    ("CC(=O)NC(C(=O)Nc1ccc(-c2ncc(C(=O)N[C@@H](C(=O)N[C@@H]3C(=O)N4[C@@H]3SC(C)(C)[C@@H]4C(=O)O)c3ccc(O)cc3)c(O)n2)cc1)C(C)C (mixture of isomers)", "Pseudomonas Aeruginosa #28", "Minimal Inhibitory Concentration", 1.6),
    ("CC(=O)N[C@@H](C)C(=O)Nc1ccc(-c2ncc(C(=O)N[C@@H](C(=O)N[C@@H]3C(=O)N4[C@@H]3SC(C)(C)[C@@H]4C(=O)O)c3ccc(O)cc3)c(O)n2)cc1", "Pseudomonas Aeruginosa #28", "Minimal Inhibitory Concentration", 1.6),
]

Dear reader, for each entry below, please note its Minimal Inhibitory Concentration.
1. CC(=O)NC(C)C(=O)Nc1ccc(-c2ncc(C(=O)N[C@@H](C(=O)N[C@@H]3C(=O)N4[C@@H]3SC(C)(C)[C@@H]4C(=O)O)c3ccc(O)cc3)c(O)n2)cc1 (mixture of isomers)
2. CCC(=O)N[C@@H](C)C(=O)Nc1ccc(-c2ncc(C(=O)N[C@@H](C(=O)N[C@@H]3C(=O)N4[C@@H]3SC(C)(C)[C@@H]4C(=O)O)c3ccc(O)cc3)c(O)n2)cc1

Output:
1: 1.6; 2: 1.6

Dear reader, for each entry below, please note its Minimal Inhibitory Concentration.
1. CC(=O)NCCC(=O)Nc1ccc(-c2ncc(C(=O)N[C@@H](C(=O)N[C@@H]3C(=O)N4[C@@H]3SC(C)(C)[C@@H]4C(=O)O)c3ccc(O)cc3)c(O)n2)cc1
2. CC(=O)NC(C)(C)C(=O)Nc1ccc(-c2ncc(C(=O)N[C@@H](C(=O)N[C@@H]3C(=O)N4[C@@H]3SC(C)(C)[C@@H]4C(=O)O)c3ccc(O)cc3)c(O)n2)cc1
3. CC(=O)N1CC(O)C[C@H]1C(=O)Nc1ccc(-c2ncc(C(=O)N[C@@H](C(=O)N[C@@H]3C(=O)N4[C@@H]3SC(C)(C)[C@@H]4C(=O)O)c3ccc(O)cc3)c(O)n2)cc1 (stereo partly drawn) [N-Acetyl-L-Hydroxyprolyl]
4. CSCCC(NC(C)=O)C(=O)Nc1ccc(-c2ncc(C(=O)N[C@@H](C(=O)N[C@@H]3C(=O)N4[C@@H]3SC(C)(C)[C@@H]4C(=O)O)c3ccc(O)cc3)c(O)n2)cc1 (mixture of isomers)

Output:
1: 0.8; 2: 0.8; 3: 1.6; 4: 1.6

====

Please respond with reported Minimal Inhibitory Concentration for every item in the list.
# Tested on: Pseudomonas Aeruginosa #28
# procedure summary: Minimal Inhibitory Concentration, in vitro
# Assay type: cell-based
# Parameters: unit not given here
Answers are plain numbers.

# compound, Minimal Inhibitory Concentration
records = [
    ("CC(=O)NCCCCC(NC(C)=O)C(=O)Nc1ccc(-c2ncc(C(=O)N[C@@H](C(=O)N[C@@H]3C(=O)N4[C@@H]3SC(C)(C)[C@@H]4C(=O)O)c3ccc(O)cc3)c(O)n2)cc1 (mixture of isomers)", 1.6),
    ("CC1(C)S[C@@H]2[C@H](NC(=O)[C@H](NC(=O)c3cnc(-c4ccc(NC(=O)CN5CCCC5=O)cc4)nc3O)c3ccc(O)cc3)C(=O)N2[C@H]1C(=O)O", 1.6),
    ("CC1(C)S[C@@H]2[C@H](NC(=O)[C@H](NC(=O)c3cnc(-c4ccc(NC(=O)[C@@H]5CCC(=O)N5)cc4)nc3O)c3ccc(O)cc3)C(=O)N2[C@H]1C(=O)O", 0.8),
    ("CC1(C)S[C@@H]2[C@H](NC(=O)[C@H](NC(=O)c3cnc(-c4ccc(NC(=O)CNC(N)=O)cc4)nc3O)c3ccc(O)cc3)C(=O)N2[C@H]1C(=O)O", 0.8),
]

Task: Would you kindly share the measured Minimal Inhibitory Concentration for CC(=O)N1CCCC1C(=O)Nc1ccc(-c2ncc(C(=O)N[C@@H](C(=O)N[C@@H]3C(=O)N4[C@@H]3SC(C)(C)[C@@H]4C(=O)O)c3ccc(O)cc3)c(O)n2)cc1 (mixture of isomers) ?
Output: 1.6

====

Please respond with reported Minimal Inhibitory Concentration for every item in the list.
# Test system: Proteus Vulgaris 1810
# procedure summary: Minimal Inhibitory Concentration, in vitro
# Format: cell-based
# Set-up: unit not given here
# Source text: The compounds of the invention are new chemical compounds that are useful as pharmacological agents and especially as broad spectrum antibacterial agents. They are active in vitro against strains of both gram-positive and gram-negative bacteria. Minimal Inhibitory Concentration
Answers are plain numbers.

Would you please look over these solved cases?
# compound, assay readout, assay value
measured = [
    ("CC(=O)N1CC(O)C[C@H]1C(=O)Nc1ccc(-c2ncc(C(=O)N[C@@H](C(=O)N[C@@H]3C(=O)N4[C@@H]3SC(C)(C)[C@@H]4C(=O)O)c3ccc(O)cc3)c(O)n2)cc1 (stereo partly drawn) [N-Acetyl-L-Hydroxyprolyl]", "Minimal Inhibitory Concentration", 3.1),
    ("CC(=O)NC(C(=O)Nc1ccc(-c2ncc(C(=O)N[C@@H](C(=O)N[C@@H]3C(=O)N4[C@@H]3SC(C)(C)[C@@H]4C(=O)O)c3ccc(O)cc3)c(O)n2)cc1)C(C)C (mixture of isomers)", "Minimal Inhibitory Concentration", 3.1),
    ("CC1(C)S[C@@H]2[C@H](NC(=O)[C@H](NC(=O)c3cnc(-c4ccc(NC(=O)CN5CCCC5=O)cc4)nc3O)c3ccc(O)cc3)C(=O)N2[C@H]1C(=O)O", "Minimal Inhibitory Concentration", 1.6),
]

Now, please, on to the next compound.
Task: Would you kindly share the measured Minimal Inhibitory Concentration for CC(=O)NCCCCC(NC(C)=O)C(=O)Nc1ccc(-c2ncc(C(=O)N[C@@H](C(=O)N[C@@H]3C(=O)N4[C@@H]3SC(C)(C)[C@@H]4C(=O)O)c3ccc(O)cc3)c(O)n2)cc1 (mixture of isomers) ?
Output: 6.3

====

Please respond with reported Minimal Inhibitory Concentration for every item in the list.
# Tested on: Proteus Vulgaris 1810
# procedure summary: Minimal Inhibitory Concentration, in vitro
# Type: cell-based
# Design: unit not given here
Answers are plain numbers.

# molecule, Minimal Inhibitory Concentration
measured = [
    ("CC(=O)NCC(=O)Nc1ccc(-c2ncc(C(=O)N[C@@H](C(=O)N[C@@H]3C(=O)N4[C@@H]3SC(C)(C)[C@@H]4C(=O)O)c3ccc(O)cc3)c(O)n2)cc1", 1.6),
    ("CC(=O)N[C@@H](C)C(=O)Nc1ccc(-c2ncc(C(=O)N[C@@H](C(=O)N[C@@H]3C(=O)N4[C@@H]3SC(C)(C)[C@@H]4C(=O)O)c3ccc(O)cc3)c(O)n2)cc1", 0.8),
]

Now, please, on to the next molecule.
Task: Would you kindly share the measured Minimal Inhibitory Concentration for CSCCC(NC(C)=O)C(=O)Nc1ccc(-c2ncc(C(=O)N[C@@H](C(=O)N[C@@H]3C(=O)N4[C@@H]3SC(C)(C)[C@@H]4C(=O)O)c3ccc(O)cc3)c(O)n2)cc1 (mixture of isomers) ?
Output: 3.1

====

# Tested on: Serratia Marcescens IMM-16
# procedure summary: Minimal Inhibitory Concentration, in vitro
# Assay type: cell-based
# Parameters: unit not given here
assay readout: Minimal Inhibitory Concentration
Numbers only.

Would you please look over these solved cases?
# molecule, Minimal Inhibitory Concentration
records = [
    ("CC(=O)NCCCCC(NC(C)=O)C(=O)Nc1ccc(-c2ncc(C(=O)N[C@@H](C(=O)N[C@@H]3C(=O)N4[C@@H]3SC(C)(C)[C@@H]4C(=O)O)c3ccc(O)cc3)c(O)n2)cc1 (mixture of isomers) [N,N'-Diacetyl-DL-Lysyl]", 50),
    ("CC(=O)NC(C)C(=O)Nc1ccc(-c2ncc(C(=O)N[C@@H](C(=O)N[C@@H]3C(=O)N4[C@@H]3SC(C)(C)[C@@H]4C(=O)O)c3ccc(O)cc3)c(O)n2)cc1 (mixture of isomers) [N-Acetyl-DL-Alanyl]", 6.3),
    ("CC1(C)S[C@@H]2[C@H](NC(=O)[C@H](NC(=O)c3cnc(-c4ccc(NC(=O)[C@@H]5CCC(=O)N5)cc4)nc3O)c3ccc(O)cc3)C(=O)N2[C@H]1C(=O)O [5-Oxo-L-Prolyl]", 12.5),
    ("CC1(C)S[C@@H]2[C@H](NC(=O)[C@H](NC(=O)c3cnc(-c4ccc(NC(=O)CNC(N)=O)cc4)nc3O)c3ccc(O)cc3)C(=O)N2[C@H]1C(=O)O [N-Carbamoyl Glycyl]", 25),
    ("CC(=O)N1CC(O)C[C@H]1C(=O)Nc1ccc(-c2ncc(C(=O)N[C@@H](C(=O)N[C@@H]3C(=O)N4[C@@H]3SC(C)(C)[C@@H]4C(=O)O)c3ccc(O)cc3)c(O)n2)cc1 (stereo partly drawn) [N-Acetyl-L-Hydroxyprolyl]", 50),
    ("CC(=O)NC(C(=O)Nc1ccc(-c2ncc(C(=O)N[C@@H](C(=O)N[C@@H]3C(=O)N4[C@@H]3SC(C)(C)[C@@H]4C(=O)O)c3ccc(O)cc3)c(O)n2)cc1)C(C)C (mixture of isomers) [N-Acetyl-DL-Valyl]", 25),
]

Task: Would you kindly share the measured Minimal Inhibitory Concentration for CC(=O)N1CCCC1C(=O)Nc1ccc(-c2ncc(C(=O)N[C@@H](C(=O)N[C@@H]3C(=O)N4[C@@H]3SC(C)(C)[C@@H]4C(=O)O)c3ccc(O)cc3)c(O)n2)cc1 (mixture of isomers) [N-Acetyl-DL-Prolyl] ?
Output: 12.5
